EXPERIMENTAL_SYSTEM: Acyl-CoA desaturase 1 (Mus musculus) (UniProt P13516)
Sequence (P13516 whole entry): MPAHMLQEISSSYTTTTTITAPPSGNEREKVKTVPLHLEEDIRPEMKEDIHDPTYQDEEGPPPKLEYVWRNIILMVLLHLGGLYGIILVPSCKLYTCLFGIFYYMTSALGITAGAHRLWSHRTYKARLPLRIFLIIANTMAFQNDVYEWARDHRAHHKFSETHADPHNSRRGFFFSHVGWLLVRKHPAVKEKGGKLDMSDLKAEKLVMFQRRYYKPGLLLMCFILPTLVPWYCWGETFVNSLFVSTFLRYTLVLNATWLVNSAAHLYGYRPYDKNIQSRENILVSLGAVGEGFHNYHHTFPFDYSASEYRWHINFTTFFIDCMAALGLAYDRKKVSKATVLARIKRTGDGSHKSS
PROCEDURE_TEXT: Inhibition of SCD1 in CD1 mouse liver at 100 nM using stearoyl [9,10-3H] CoA as substrate and NADPH incubated for 2 hrs by scintillation counting method
Answer each item with its documented inhibition.
Expressed in %, but write only the number.

Task: Reported inhibition, compound CC(CNC(=O)C(=O)Nc1ccc(Cl)cc1)c1ccc(O)cc1 (stereo unspecified) : ____
Result: 28

Task: Dear colleague, I am looking for the recorded inhibition of the following compound: `O=C(NCCc1ccc(O)cc1)NC(=O)c1ccc(COc2ccccc2)cc1`
Result: 96

Task: Using the record for `O=C(NCCc1ccc(O)cc1)c1ccc2ccccc2n1` , report its inhibition.
Result: 31

Task: Could you share which inhibition value was measured for `O=C(NCCc1ccc(O)cc1)C(=O)NC1CC1` ?
Result: 0

Task: I would be grateful if you could share the reported inhibition for `Cc1ccccc1C(=O)c1ccc(C(=O)NC(=O)NCCc2ccc(O)cc2)cc1` .
Result: 57

Task: Which inhibition is listed for CC(Cc1ccc(O)cc1)NC(=O)C(=O)Nc1ccc(Cl)cc1 (stereo unspecified) ?
Result: 24

---

Test system: NCI-H1155
PROCEDURE_TEXT: Cytotoxicity against human NCI-H1155 cells
Format: functional, cell-based
ENDPOINT_LABEL: EC50

Task: Returns the measured EC50 for the input compound. Input: `COc1ccc(CCNC(=O)C(=O)Nc2ccc(Cl)cc2)cc1`
Result: > 10 µM

---

System: HCC95
PROCEDURE_TEXT: Cytotoxicity against human HCC95 cells
Assay type: functional, cell-based
ENDPOINT_LABEL: EC50

Task: Recorded EC50 for `COc1ccc(CCNC(=O)C(=O)Nc2ccc(Cl)cc2)cc1` with HCC95, please?
Result: < 1000 nM

---

PROCEDURE_TEXT: Drug level in human NCI-H1155 cells after 4 hrs by LC-MS/MS analysis
Assay type: ADME, cell-based
SETTINGS: nci-h1155, 4 h
ENDPOINT_LABEL: Drug uptake
Answer with the value and then the unit.

Task: Which value of Drug uptake has been reported for `COc1ccc(CCNC(=O)NC(=O)c2ccc(COc3ccccc3)cc2)cc1` in the records?
Result: 1670 nM

Task: Entry `COc1ccc(CNC(=O)C(=O)Nc2ccc(Cl)cc2)cc1` : reported Drug uptake = ?
Result: 340 nM

Task: Could you tell me which Drug uptake is on file for `C#CCOc1ccc(C(=O)c2ccc(NC(=O)C(=O)NCCc3ccc(OC)cc3)cc2)cc1` ?
Result: 870 nM

Task: Data request, read-out Drug uptake, for `COc1ccc(CCNC(=O)C(=O)NC2CC2)cc1`
Result: 80 nM

---

PROCEDURE_TEXT: Half life in mouse liver S9 fraction by LC-MS/MS analysis
Format: ADME, subcellular
Exercise: for every item that follows, state its recorded half-life.
Kindly provide the numeric value in h only, without the unit symbol.

Task: What half-life value was documented for this compound, `O=C(NCCc1ccc(O)cc1)C(=O)Nc1ccc(Cl)cc1` ?
Result: 1.18

Task: // query half-life value for entry `COc1ccc(CCNC(=O)NC(=O)c2ccc(COc3ccccc3)cc2)cc1`
Result: 2.63

Task: // lookup half-life for `C#CCOc1ccc(C(=O)c2ccc(NC(=O)C(=O)NCCc3ccc(O)cc3)cc2)cc1`
Result: 0.217

Task: Quick check: half-life of `COc1ccc(CCNC(=O)C(=O)Nc2ccc(Cl)cc2)cc1` ?
Result: 0.117
